- system: human ether-à-go-go-related gene (hERG) potassium channel (human)
- method_description: primary screen, population patch clamp on CHO cells stably expressing hERG; higher = less effect of the substance
In all, about 310,000 compounds went through this assay and about 14,000 (4.5%) showed an effect of 50% or more. Effects have a minus sign here. What follows is part of a selection rich in strong results, with near analogues and random picks from the rest.
experimental_endpoint: hERG current change (%, negative = inhibition) at 10uM (%)
Quick note: give the figure in %, leave out the unit.

Name the reported hERG current change (%, negative = inhibition) at 10uM value associated with the compound "Cc1ccc(NC(=O)CN(C)C(=O)CSc2nc3ccccc3c(=O)n2Cc2ccco2)cc1"
-71.1

Please give the result for Cc1ncc(CN2CCCC(C(=O)Nc3ccc(-n4ccnc4C)cc3)C2)cn1 (stereo not shown) too.
12.8

Please give the result for "CN(Cc1ccccc1)C(=O)CSc1nc2ccccc2c(=O)n1Cc1ccco1" too.
-3.56

Please give the result for "Cc1ccc(C(=O)Nc2cccc(C(F)(F)F)c2)cc1NC(=O)c1nccnc1N" too.
8.61

Please give the result for CCc1nc(C)c(C(=O)N2CCCC(C(=O)Nc3cccc(-c4cccc(C)c4)c3)C2)o1 (stereo not shown) too.
-42.5

Please give the result for "O=C(CCC(=O)Nc1ccc(F)cc1)N/N=C/c1ccc(F)cc1" too.
13.1

Please give the result for Cc1cccc(-c2cccc(NC(=O)C3CCCN(C(=O)c4ocnc4C)C3)c2)c1 (stereo not shown) too.
-53

Please give the result for "CCOC(=O)C/C(C)=N\Nc1ccc([N+](=O)[O-])cc1[N+](=O)[O-]" too.
-40.2

Please give the result for "COCCn1c(-c2ccc(F)cc2)nc2cccnc21" too.
12.1

Please give the result for CCC(Sc1nc2cc3c(cc2c(=O)n1Cc1ccco1)OCO3)C(=O)NCCOC (stereo not shown) too.
-63.6

Please give the result for CC(c1nnc(Sc2nnnn2-c2ccccc2)n1-c1ccc(F)cc1)N(C)C (stereo not shown) too.
3.57

Please give the result for CCc1ccccc1NC(=O)C(CC)Sc1nc2cc3c(cc2c(=O)n1Cc1ccco1)OCO3 (stereo not shown) too.
17.1

Please give the result for "O=C(CSc1nc2ccccc2c(=O)n1-c1ccccc1)NCc1ccco1" too.
-15.1

Please give the result for "C=CCn1c(SCC(=O)NCc2ccco2)nc2ccccc2c1=O" too.
-50.3

Please give the result for "Cc1ccc(C(=O)Nc2cccc(C(F)(F)F)c2)cc1NC(=O)c1nccn1C" too.
1.96

Please give the result for "O=C(CSc1nc2ccccc2c(=O)n1Cc1ccco1)NCCN1C(=O)CSC1=O" too.
-61.4

Please give the result for Cc1ncoc1C(=O)N1CCCC(C(=O)Nc2cccc(-c3ccc(F)cc3)c2)C1 (stereo not shown) too.
-36.4

Please give the result for "CCOC(=O)C(C(=O)OCC)C(C)(C)/C(C)=N\Nc1ccc([N+](=O)[O-])cc1[N+](=O)[O-]" too.
-40.8

Please give the result for Cc1ncc(CN2CCCC(C(=O)Nc3ccc(-c4cccc(F)c4)cc3)C2)n1C (stereo not shown) too.
-69.5

----------
Please go through the items and note down their hERG current change (%, negative = inhibition) at 10uM.
- system: human ether-à-go-go-related gene (hERG) potassium channel (human, UniProt Q12809);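 also: peak tail current of the secondary pulse compared with the same well before compound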
- Sequence (Q12809 whole entry, looked up): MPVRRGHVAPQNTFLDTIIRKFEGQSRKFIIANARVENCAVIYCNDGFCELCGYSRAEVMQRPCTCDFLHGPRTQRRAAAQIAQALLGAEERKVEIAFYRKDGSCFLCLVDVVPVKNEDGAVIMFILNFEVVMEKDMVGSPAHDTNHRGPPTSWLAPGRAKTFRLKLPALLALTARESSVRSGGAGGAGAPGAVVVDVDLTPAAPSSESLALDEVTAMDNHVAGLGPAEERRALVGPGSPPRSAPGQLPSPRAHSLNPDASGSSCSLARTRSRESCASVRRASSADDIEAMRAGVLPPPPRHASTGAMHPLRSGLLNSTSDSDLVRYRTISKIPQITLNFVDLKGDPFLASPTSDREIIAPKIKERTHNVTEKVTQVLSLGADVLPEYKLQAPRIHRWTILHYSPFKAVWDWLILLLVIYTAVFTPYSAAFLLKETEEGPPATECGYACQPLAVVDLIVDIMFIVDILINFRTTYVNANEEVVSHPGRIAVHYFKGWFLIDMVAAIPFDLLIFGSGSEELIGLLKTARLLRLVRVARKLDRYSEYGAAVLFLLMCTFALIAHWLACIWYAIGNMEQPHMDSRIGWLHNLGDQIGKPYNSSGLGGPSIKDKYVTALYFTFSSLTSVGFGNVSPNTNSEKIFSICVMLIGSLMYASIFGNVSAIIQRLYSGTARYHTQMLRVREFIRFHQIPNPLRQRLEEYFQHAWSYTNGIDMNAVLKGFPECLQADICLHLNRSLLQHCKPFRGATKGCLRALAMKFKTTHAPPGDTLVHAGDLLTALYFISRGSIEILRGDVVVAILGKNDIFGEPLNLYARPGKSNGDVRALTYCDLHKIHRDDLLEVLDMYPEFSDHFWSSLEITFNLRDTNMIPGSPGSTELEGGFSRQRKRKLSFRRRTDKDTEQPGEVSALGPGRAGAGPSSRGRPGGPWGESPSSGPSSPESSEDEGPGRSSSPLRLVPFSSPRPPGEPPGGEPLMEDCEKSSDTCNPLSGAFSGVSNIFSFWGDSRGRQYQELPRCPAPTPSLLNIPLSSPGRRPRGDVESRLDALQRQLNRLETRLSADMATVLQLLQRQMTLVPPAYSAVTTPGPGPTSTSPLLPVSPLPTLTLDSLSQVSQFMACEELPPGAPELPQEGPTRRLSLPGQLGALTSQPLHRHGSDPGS
- method_description: primary screen, population patch clamp on CHO cells stably expressing hERG; higher = less effect of the substance
Hit rate of the full screen: of about 310,000 compounds, about 14,000 (4.5%) showed an effect of 50% or more. Effects have a minus sign here. The sample holds strong results, similar compounds and a random draw of the others, so the mix is not that of the screen.
Quick note: give the figure in %, leave out the unit.

Name the reported hERG current change (%, negative = inhibition) at 10uM value associated with the molecule "COc1ccc(NC(=O)COC(=O)c2cc([N+](=O)[O-])ccc2N2CCOCC2)cc1"
-29.3

Please give the result for "COc1ccccc1NC(=O)COC(=O)c1cc([N+](=O)[O-])ccc1N1CCCC1" too.
-0.76

Please give the result for "CN(Cc1ccccc1)C(=O)COC(=O)c1cc(S(=O)(=O)N(C)C)ccc1N1CCCC1" too.
1.93

Please give the result for "CN(Cc1ccccc1)C(=O)COC(=O)c1ccc(S(=O)(=O)N(C)C)cc1" too.
-2.9

Please give the result for "Cc1ccccc1OCC(=O)OCC(=O)Nc1ccc(N2CCOCC2)cc1" too.
9.51

Please give the result for "O=C(COC(=O)c1cc([N+](=O)[O-])ccc1N1CCOCC1)NCCc1ccccc1" too.
-45.4

Please give the result for "O=C(COC(=O)c1cc([N+](=O)[O-])ccc1N1CCOCC1)Nc1cc(F)ccc1F" too.
-49.8

Please give the result for "COc1cccc(CNC(=O)COC(=O)c2cc([N+](=O)[O-])ccc2N2CCCC2)c1" too.
-56.9

Please give the result for "Cc1ccccc1-[n+]1c(-c2ccccc2)cc(-c2ccccc2)cc1-c1ccccc1.[O-][Cl+3]([O-])([O-])[O-]" too.
-76.3

----------
Please go through the items and note down their hERG current change (%, negative = inhibition) at 10uM.
- system: human ether-à-go-go-related gene (hERG) potassium channel (human);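 also: peak tail current of the secondary pulse compared with the same well before compound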
- method_description: primary screen, population patch clamp on CHO cells stably expressing hERG; higher = less effect of the substance
In all, about 310,000 compounds went through this assay and about 14,000 (4.5%) showed an effect of 50% or more. The effect is printed as a negative number. This excerpt belongs to a sample that is enriched for strong results.
Quick note: give the figure in %, leave out the unit.

Name the reported hERG current change (%, negative = inhibition) at 10uM value associated with the compound "CN(C)S(=O)(=O)c1ccc(C(=O)OCC(=O)Nc2ccccc2OC(F)F)cc1"
-5.82

Please give the result for "O=S(=O)(Nc1cccc(-n2cnnn2)c1)c1cccc(Cl)c1" too.
16.2

Please give the result for "O=C(NCc1ccc2c(c1)OCO2)c1ccc(Br)s1" too.
6.32

Please give the result for "COC(=O)c1ccc(OC)c(CSc2nnc(COc3ccc(OC)cc3)o2)c1" too.
-27.1

Please give the result for "NC(=O)C[n+]1cccc(C(N)=O)c1.[Cl-]" too.
12.8

Please give the result for "CCCCN(CC)c1nc(N)c(C#N)c(CC#N)c1C#N" too.
-24.9

Please give the result for CC(OC(=O)c1ccccc1NCc1ccco1)C(=O)Nc1ncc(Cl)cc1Cl (stereo not shown) too.
2.95

Please give the result for "COCCNC(=S)N1CCC(C(=O)c2ccc3c(c2)OCCO3)CC1" too.
32.7

Please give the result for "CC(C)(C)NC(=O)Cn1c(=O)c(=O)n(Cc2ccccc2)c2ccc(Cl)cc21" too.
-0.233

Please give the result for "COc1cc(-c2nc3sc(C)c(C)c3c(=O)o2)cc(OC)c1OC" too.
19

----------
- system: human ether-à-go-go-related gene (hERG) potassium channel (human);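 also: peak tail current of the secondary pulse compared with the same well before compound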
- method_description: primary screen, population patch clamp on CHO cells stably expressing hERG; higher = less effect of the substance
Out of some 310,000 compounds screened, about 14,000 (4.5%) showed an effect of 50% or more. Effects have a minus sign here. For the sample, strong results were picked, then their nearest neighbours and some compounds at random.
experimental_endpoint: hERG current change (%, negative = inhibition) at 10uM (%)
Quick note: give the figure in %, leave out the unit.

Name the reported hERG current change (%, negative = inhibition) at 10uM value associated with the compound "Oc1ccccc1-[n+]1c(-c2ccccc2)cc(-c2ccccc2)c(O)c1-c1ccccc1.[O-][Cl+3]([O-])([O-])[O-]"
15.1

Please give the result for "[O-]c1ccccc1-[n+]1c(-c2ccccc2)cc(-c2ccccc2)cc1-c1ccccc1" too.
-71.1

Please give the result for "O=C1CCC(=O)N1c1ccc(-c2nc3ccccc3s2)cc1" too.
16

Please give the result for "CCOC(=O)c1cc2ccccc2nc1C" too.
5.32

Please give the result for "O=C([O-])c1ccc(-[n+]2c(-c3ccccc3)cc(-c3ccccc3)cc2-c2ccccc2)cc1" too.
-0.807

Please give the result for "O=C([O-])c1ccccc1-[n+]1c(-c2ccccc2)cc(-c2ccccc2)cc1-c1ccccc1" too.
-3.82

Please give the result for Cc1cc(C)cc(N2C(=O)CC(N3CCOCC3)C2=O)c1 (stereo not drawn) too.
14.9

Please give the result for "COc1ccc(N=CC2=C(O)c3ccccc3C2=O)cc1" too.
11.1

Please give the result for "Cc1ccc(CS(=O)(=O)c2ncc(Cl)c(C(=O)Nc3nnc(C(C)C)s3)n2)cc1" too.
9.25

----------
- system: human ether-à-go-go-related gene (hERG) potassium channel (human, UniProt Q12809);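 also: peak tail current of the secondary pulse compared with the same well before compound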
- method_description: primary screen, population patch clamp on CHO cells stably expressing hERG; higher = less effect of the substance
Among all 310,000 compounds or so, about 14,000 (4.5%) showed an effect of 50% or more. The effect is printed as a negative number. Only a selection was taken, and strong results are over-represented in it overall.
Please go through the items and note down their hERG current change (%, negative = inhibition) at 10uM.
Quick note: give the figure in %, leave out the unit.

Name the reported hERG current change (%, negative = inhibition) at 10uM value associated with the compound COc1ccc2oc(C(=O)NN3C(C)CCCC3C)c(C)c2c1 (stereo not shown)
16.1

Please give the result for "O=C(NCc1ccon1)c1ccc(OC2CCN(CCc3ccccc3)CC2)cc1" too.
-66.6

Please give the result for "CC(=O)Nc1nnc(COc2ccc(Cl)cc2)s1" too.
30.7

Please give the result for "CCC(=O)NNC(=S)NC(=O)c1ccc(C)cc1" too.
22.4

Please give the result for "Cc1cc(CNC(=O)c2cccc(OC3CCN(S(=O)(=O)N(C)C)CC3)c2)on1" too.
0.225

Please give the result for "O=C(NCCc1ccccc1)c1ccc2c(c1)OCCCO2" too.
17.4

Please give the result for "COCCC(=O)N1CCC(Oc2ccc(C(=O)NCc3ccon3)cc2)CC1" too.
3.38

Please give the result for "O=C(NCCn1cccn1)c1ccc(OC2CCN(CCc3ccccc3)CC2)cc1" too.
-41.3

Please give the result for CCOC(=O)c1sc2ncn(C(CC)C(=O)OC)c(=O)c2c1C (stereo not shown) too.
9.35

Please give the result for "O=C(NCCc1ccccn1)c1ccc(OC2CCN(CCc3ccccc3)CC2)cc1" too.
-41.9
